Tested on: renal cell lines
Experiment: NCI hollow fibre assay, renal variation
Type: in vivo, human
Settings: three cell lines, subcutaneous fibres in mice, drug IP QDx4, 2 doses, 2 points per dose giving 50% or greater reduction in viable cell mass
readout.kind: SC score
Response field accepts a number only; no unit should be typed.

molecule	system	SC score
COc1cc2c(cc1OC)C(=O)N1C=C(c3c(C)cccc3C)C[C@H]1C=N2	renal cell lines	4

Ask: Name the recorded SC score for COc1cc2c(cc1OC)C(=O)N1C=C(c3ccc(C(C)(C)C)cc3)C[C@H]1C=N2 .
Result: 2

Ask: Name the recorded SC score for COc1cc2c(cc1OC)C(=O)N1C=C(c3ccc(C)cc3)C[C@H]1C=N2 [Compound C3, reference compound] .
Result: 0

Ask: Name the recorded SC score for COc1cc2c(cc1OC)C(=O)N1C=C(c3ccccc3)C[C@H]1C=N2 [Compound C1, reference compound] .
Result: 0

---

Entries and their IP score
System: melanoma cell lines
Assay: NCI hollow fibre assay, melanoma variation
Assay type: in vivo, human
Conditions: 6 cell lines, intraperitoneal fibres in mice, drug IP QDx4, 2 doses, 2 points per dose giving 50% or greater reduction in viable cell mass
Response field accepts a number only; no unit should be typed.

Illustrative cases are given below, each with its answer.
compound	IP score
CCc1ccc(C2=CN3C(=O)c4cc(OC)c(OC)cc4N=C[C@@H]3C2)cc1	10
COc1cc2c(cc1OC)C(=O)N1C=C(c3ccccc3)C[C@H]1C=N2 [Compound C1, reference compound]	4
COc1cc2c(cc1OC)C(=O)N1C=C(c3ccc(C)cc3)C[C@H]1C=N2 [Compound C3, reference compound]	0
COc1cc2c(cc1OC)C(=O)N1C=C(c3ccc(C(C)(C)C)cc3)C[C@H]1C=N2	2

Ask: Name the recorded IP score for COc1cc2c(cc1OC)C(=O)N1C=C(c3ccccc3C)C[C@H]1C=N2 .
Result: 4

---

Tested on: Renal RXF 944L
Experiment: In vitro clonogenic assay (two-layer agar), renal
Format: cell-based, human
Conditions: continuous exposure, 8-20 days, colony count
readout.kind: IC50

Ask: Name the recorded IC50 for CCc1ccc(C2=CN3C(=O)c4cc(OC)c(OC)cc4N=C[C@@H]3C2)cc1 [Compound 21] .
Result: < 0.1 nM

---

Tested on: Melanoma MEXF 462NL
Assay: In vitro clonogenic assay (two-layer agar), melanoma
Format: cell-based, human
Settings: continuous exposure, 8-20 days, colony count
pIC50: −log10 of the molar value.
readout.kind: pIC50

Ask: Name the recorded pIC50 for CCc1ccc(C2=CN3C(=O)c4cc(OC)c(OC)cc4N=C[C@@H]3C2)cc1 .
Result: > 10.00

---

Test system: renal cell lines
Assay: NCI hollow fibre assay, renal variation
Format: in vivo, human
Conditions: three cell lines, combined score, 5 or more referred for xenograft testing
Entries and their IP + SC score
Response field accepts a number only; no unit should be typed.

compound	system	measured
COc1cc2c(cc1OC)C(=O)N1C=C(c3ccc(C(C)(C)C)cc3)C[C@H]1C=N2 [Compound 13]	renal cell lines	6
COc1cc2c(cc1OC)C(=O)N1C=C(c3ccc(C)cc3)C[C@H]1C=N2 [Compound C3, reference compound]	renal cell lines	2
COc1cc2c(cc1OC)C(=O)N1C=C(c3ccccc3)C[C@H]1C=N2 [Compound C1, reference compound]	renal cell lines	0

Ask: Name the recorded IP + SC score for COc1cc2c(cc1OC)C(=O)N1C=C(c3c(C)cccc3C)C[C@H]1C=N2 [Compound 27] .
Result: 8
